- method summary: Selectivity ratio of IC50 for PI3Kbeta to IC50 for PI3Kdelta
Would you kindly list Ratio IC50 for each of these compounds?
Answers are plain numbers.

{"columns": ["smi", "Ratio IC50"],
 "data": [
  ["CC(C)(O)C1CCN(Cc2nc3c(N4CCOCC4)nc(-c4c(F)ccc5[nH]ccc45)nc3s2)CC1", 200],
  ["CC(C)(O)C1CCN(Cc2nc3c(N4CCOCC4)nc(-c4c(F)ccc5[nH]ccc45)nc3[nH]2)CC1", 140]
]}

Next compound, please.
Look up Ratio IC50 for this compound: Fc1ccc2[nH]ccc2c1-c1nc(N2CCOCC2)c2nc(CN3CCOCC3)ccc2n1
13

====

- method summary: Cmax in Sprague-Dawley rat at 10 mg/kg, po
- Format: ADME, organism-based
- Parameters: dose 10 mg/kg, route oral
- stated conditions: in vivo
reported metric: Cmax (nM)
Answers are plain numbers, in nM.

Look up Cmax for this compound: CC(C)(O)C1CCN(Cc2ccc3nc(-c4c(F)ccc5[nH]ccc45)nc(N4CCOCC4)c3n2)CC1
1200

====

- method summary: Cmax in CD1 mouse at 5 mg/kg, po
- Assay type: ADME, organism-based
- Parameters: dose 5 mg/kg, route oral
- stated conditions: in vivo
reported metric: Cmax (nM)
Answers are plain numbers, in nM.

Look up Cmax for this compound: CC(C)(O)C1CCN(Cc2ccc3nc(-c4c(F)ccc5[nH]ccc45)nc(N4CCOCC4)c3n2)CC1
900

====

- method summary: Selectivity ratio of IC50 for PI3Kbeta to IC50 for PI3Kdelta
Would you kindly list Ratio IC50 for each of these compounds?
One number for each entry.

Below are worked cases with known answers.
{"columns": ["smi", "Ratio IC50"],
 "data": [
  ["CC(C)(O)C1CCN(Cc2ccc3nc(-c4cccc5[nH]ncc45)nc(N4CCOCC4)c3n2)CC1", 78],
  ["CC(C)(O)C1CCN(Cc2ccc3nc(-c4cnc(N)nc4)nc(N4CCOCC4)c3n2)CC1", 73],
  ["CC(C)(O)C1CCN(Cc2cc3nc(-c4c(F)ccc5[nH]ccc45)nc(N4CCOCC4)c3s2)CC1", 110],
  ["OCc1ccc2nc(-c3c(F)ccc4[nH]ccc34)nc(N3CCOCC3)c2n1", 3.7]
]}

Next compound, please.
Look up Ratio IC50 for this compound: CC(C)(O)C1CCN(Cc2ccc3nc(-c4cccc5[nH]ccc45)nc(N4CCOCC4)c3n2)CC1
210

====

- method summary: AUC in BALB/c mouse at 40 mg/kg, po
- Format: ADME, organism-based
- Parameters: dose 40 mg/kg, route oral
- stated conditions: plasma
reported metric: AUC (µM·h)
Answers are plain numbers, in µM·h.

Look up AUC for this compound: CC(C)(O)C1CCN(Cc2ccc3nc(-c4c(F)ccc5[nH]ccc45)nc(N4CCOCC4)c3n2)CC1
63

====

- test target: Phosphatidylinositol 4,5-bisphosphate 3-kinase catalytic subunit delta isoform (Homo sapiens, UniProt O00329)
- Sequence (O00329 whole entry, canonical isoform): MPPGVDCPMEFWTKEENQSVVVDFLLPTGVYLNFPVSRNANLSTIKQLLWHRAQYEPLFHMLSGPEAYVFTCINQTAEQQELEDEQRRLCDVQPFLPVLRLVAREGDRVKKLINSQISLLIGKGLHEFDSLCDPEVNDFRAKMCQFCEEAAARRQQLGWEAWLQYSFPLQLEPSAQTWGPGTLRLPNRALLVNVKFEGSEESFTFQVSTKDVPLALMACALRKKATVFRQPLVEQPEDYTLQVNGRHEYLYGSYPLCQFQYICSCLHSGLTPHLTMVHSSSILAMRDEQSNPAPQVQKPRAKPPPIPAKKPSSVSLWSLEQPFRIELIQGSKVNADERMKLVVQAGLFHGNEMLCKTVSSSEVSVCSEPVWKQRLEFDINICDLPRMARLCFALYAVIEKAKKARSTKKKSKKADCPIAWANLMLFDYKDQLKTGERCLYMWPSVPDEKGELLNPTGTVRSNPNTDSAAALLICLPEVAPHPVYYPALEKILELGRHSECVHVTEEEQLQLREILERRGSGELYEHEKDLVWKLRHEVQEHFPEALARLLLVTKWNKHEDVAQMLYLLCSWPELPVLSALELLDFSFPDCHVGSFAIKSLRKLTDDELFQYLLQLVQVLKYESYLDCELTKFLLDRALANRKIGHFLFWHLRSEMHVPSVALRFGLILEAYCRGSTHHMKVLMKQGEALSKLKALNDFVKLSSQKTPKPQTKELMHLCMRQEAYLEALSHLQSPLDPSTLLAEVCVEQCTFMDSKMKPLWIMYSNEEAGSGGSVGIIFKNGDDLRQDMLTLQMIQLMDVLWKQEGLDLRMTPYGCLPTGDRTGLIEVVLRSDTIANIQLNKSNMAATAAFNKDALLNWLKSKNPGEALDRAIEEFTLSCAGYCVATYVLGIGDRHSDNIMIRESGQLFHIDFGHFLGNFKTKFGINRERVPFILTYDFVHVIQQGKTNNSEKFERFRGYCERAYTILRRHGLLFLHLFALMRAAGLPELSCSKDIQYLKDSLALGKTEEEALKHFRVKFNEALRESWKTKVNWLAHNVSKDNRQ
- method summary: Inhibition of PI3Kdelta-mediated AKT phosphorylation in B cells in presence of human serum
- Assay type: cell-based
Would you kindly list IC50 for each of these compounds?
Answers are plain numbers, in nM.

Below are worked cases with known answers.
{"columns": ["smi", "IC50 (nM)"],
 "data": [
  ["CC(C)(O)C1CCN(Cc2ccc3nc(-c4cccc5[nH]ncc45)nc(N4CCOCC4)c3n2)CC1", 480],
  ["CC(C)(O)C1CCN(Cc2ccc3nc(-c4cnc(N)nc4)nc(N4CCOCC4)c3n2)CC1", 145],
  ["OCc1ccc2nc(-c3c(F)ccc4[nH]ccc34)nc(N3CCOCC3)c2n1", 145]
]}

Take each entry in turn and give its IC50.
1. CC(C)(O)C1CCN(Cc2ccc3nc(-c4cccc5[nH]ccc45)nc(N4CCOCC4)c3n2)CC1
2. Fc1ccc2[nH]ccc2c1-c1nc(N2CCOCC2)c2nc(CN3CCOCC3)ccc2n1

55
67

====

- method summary: AUC in Sprague-Dawley rat at 10 mg/kg, po
- Assay type: ADME, organism-based
- Design: dose 10 mg/kg, route oral
- stated conditions: plasma
reported metric: AUC

Look up AUC for this compound: CC(C)(O)C1CCN(Cc2ccc3nc(-c4c(F)ccc5[nH]ccc45)nc(N4CCOCC4)c3n2)CC1
11 µM·h
